B1: Hairpin Ribozyme (parent)
chain: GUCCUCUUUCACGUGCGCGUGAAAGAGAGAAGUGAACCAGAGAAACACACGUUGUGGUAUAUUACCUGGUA

Variants of: B1
ASSAY_COMMENT: self-cleavage, relative activity (ratio to wild type); higher = more cleavage; co-transcriptional
Catalogue of variants with associated self-cleavage
EXPERIMENTAL_ENDPOINT: self-cleavage

MUTANT_LABEL | EXPERIMENTAL_ENDPOINT | VAL
G32A U67G | self-cleavage | 0.0549
G54A A61C | self-cleavage | 0.192
U8C C10A | self-cleavage | 0.363
G1A G19U | self-cleavage | 0.13
A30U G54A | self-cleavage | 0.137
G19C A30U | self-cleavage | 0.161
U14A G54C | self-cleavage | 0.338
G27C C66G | self-cleavage | 0.156
G27U G56A | self-cleavage | 0.0845
C50G A61G | self-cleavage | 0.175
C48U G57C | self-cleavage | 0.163
C16G C37G | self-cleavage | 0.386
A31G A45U | self-cleavage | 0.236
G40A G68C | self-cleavage | 0.223
U7C C37U | self-cleavage | 0.494
U20C C65U | self-cleavage | 0.284
C16A A47U | self-cleavage | 0.0731
G13C A31G | self-cleavage | 0.515
U9A C12G | self-cleavage | 0.512
G13A G56C | self-cleavage | 0.119
U9G A11G | self-cleavage | 0.551
A23C U33A | self-cleavage | 0.109
G29A A61G | self-cleavage | 0.125
A24G G34C | self-cleavage | 1.34
A35U U70G | self-cleavage | 0.874
U2G A36G | self-cleavage | 0.274
A23U G32C | self-cleavage | 0.231
C6U C37G | self-cleavage | 0.372
G13U A23C | self-cleavage | 0.557
G17C A59C | self-cleavage | 0.162
A41U U58C | self-cleavage | 1.41
C4U U8G | self-cleavage | 0.204
U33G G34C | self-cleavage | 0.337
A28C C46A | self-cleavage | 0.191
G15A G25C | self-cleavage | 0.491
G21C G32C | self-cleavage | 0.175
U2A U14A | self-cleavage | 0.174
U33G A39C | self-cleavage | 0.149
C12U C66G | self-cleavage | 0.126
G27A A41G | self-cleavage | 0.261
C18A G42U | self-cleavage | 0.369
C3A A11G | self-cleavage | 0.686
A36C A41C | self-cleavage | 0.401
G17U A36U | self-cleavage | 0.483
A24U A39U | self-cleavage | 0.38
A59G A71C | self-cleavage | 0.444

Data provenance: the RNAGym collection of RNA variant scans (doi:10.7554/elife.80360)
